shrunken log2 fold change for assorted sequences
System: Escherichia coli TOP10;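 note: peptides expressed intracellularly from a pBAD plasmid library in pooled LB shake-flask culture, induced with 0.3% L-arabinose, DNA abundance read by NGS, three biological replicates, DESeq2 with apeglm shrinkage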
assayRemarks: shrunken log2 fold change of peptide-encoding DNA abundance (4.5 h post-induction vs induction); higher = less antimicrobial activity (less host growth inhibition)
conditionLabel: time post-induction: 4.5 h; library: site-saturation at positions 5, 18, 19, 20
measure: shrunken log2 fold change

>>> recordedvalue("RRIRNRPPRLPRPRPRPAESPRP")
0.37
>>> recordedvalue("RRIRNRPPRLPRPRPRPVCAPRP")
0.559
>>> recordedvalue("RRIRARPPRLPRPRPRPMYWPRP")
-0.0443
>>> recordedvalue("RRIRKRPPRLPRPRPRPYSGPRP")
-0.839
>>> recordedvalue("RRIRTRPPRLPRPRPRPTQKPRP")
-0.0787
>>> recordedvalue("RRIRKRPPRLPRPRPRPPEGPRP")
1.08
>>> recordedvalue("RRIRWRPPRLPRPRPRPPMPPRP")
0.444
>>> recordedvalue("RRIRGRPPRLPRPRPRPGGEPRP")
1.24
>>> recordedvalue("RRIRERPPRLPRPRPRPMSCPRP")
-0.206
>>> recordedvalue("RRIRARPPRLPRPRPRPACFPRP")
0.736
>>> recordedvalue("RRIRWRPPRLPRPRPRPYYNPRP")
-1.01
>>> recordedvalue("RRIRMRPPRLPRPRPRPQKWPRP")
-0.00664
